Target: T1, Anti-PSMA Fab (SEQ ID NOs: 19, 20)
T1 construct: also called 006 PSMA Fab
Assay: phage binding ELISA; PSMA Fab coated wells pre-incubated with PSMA antigen as competitor, anti-M13 HRP detection
experimental.endpoint: Anti-PSMA Fab signal in the presence of PSMA
Please give the numeric answer without any surrounding text.

1. VEVKCFPLWFCVGL (tested as clonal phage supernatant) [Phage-1805] ... 0.0923
2. PEHLCLPRWMCEGF (tested as clonal phage supernatant) [Phage-1808] ... 0.135
3. TVAYCKPAWMCQGF (tested as clonal phage supernatant) [Phage-1813] ... 0.108
4. IVVKCVPSWMCEGF (tested as clonal phage supernatant) [Phage-1812] ... 0.102
5. ITPICKPAWICSGF (tested as clonal phage supernatant) [Phage-1806] ... 0.0631
6. TTHVCIPSWMCSGF (tested as clonal phage supernatant) [Phage-1810] ... 0.0668
7. VLKYCIPDWMCAGI (tested as clonal phage supernatant) [Phage-1816] ... 0.0978
8. TEVRCTPPWMCLGF (tested as clonal phage supernatant) [Phage-1814] ... 0.0981
9. YERACIPNWICEGF (tested as clonal phage supernatant) [Phage-1809] ... 0.0842
10. VERLCTPAWMCHGF (tested as clonal phage supernatant) [Phage-1815] ... 0.214

Qu. Fill in: Anti-PSMA Fab signal in the presence of PSMA of VNHWCVPTWMCAGF (tested as clonal phage supernatant) [Phage-1811] is ___
Ans. 0.186

Qu. Fill in: Anti-PSMA Fab signal in the presence of PSMA of VVIKCKPEWMCSGF (tested as clonal phage supernatant) [Phage-1807] is ___
Ans. 0.0946

Qu. Fill in: Anti-PSMA Fab signal in the presence of PSMA of LEPLCVPRWMCVGF (tested as clonal phage supernatant) [Phage-1803] is ___
Ans. 0.112

Qu. Fill in: Anti-PSMA Fab signal in the presence of PSMA of ITPVCKPLWMCSGL (tested as clonal phage supernatant) [Phage-1804] is ___
Ans. 0.0764
